Measured EC50 values are reported for all entries that follow.
Target: T1, human CD63 (human, UniProt P08962 2-238)
T1 construct: stably transfected in NIH3T3/hCD63; The cell line is named under assay; also called hCD63
T1 sequence: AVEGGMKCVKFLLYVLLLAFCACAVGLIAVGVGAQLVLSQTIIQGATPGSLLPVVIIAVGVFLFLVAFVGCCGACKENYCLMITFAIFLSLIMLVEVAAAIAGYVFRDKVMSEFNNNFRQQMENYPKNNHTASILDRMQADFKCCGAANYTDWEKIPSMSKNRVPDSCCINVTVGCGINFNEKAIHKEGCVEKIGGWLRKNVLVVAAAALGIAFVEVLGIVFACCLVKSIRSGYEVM
Assay: ECL, LNCAP cells
experimentalEndpoint: EC50 (nM)

binder	reading
H1M12388N (antibody, V domains shown) VH: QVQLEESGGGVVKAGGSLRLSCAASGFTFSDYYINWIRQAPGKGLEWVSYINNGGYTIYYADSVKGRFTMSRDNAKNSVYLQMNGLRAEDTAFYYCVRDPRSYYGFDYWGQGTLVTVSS VL: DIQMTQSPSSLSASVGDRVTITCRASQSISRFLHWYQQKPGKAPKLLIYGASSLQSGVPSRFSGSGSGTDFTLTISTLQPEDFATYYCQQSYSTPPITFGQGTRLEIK	0.25
H2M12387N (antibody, V domains shown, also called H2aM12387N) VH: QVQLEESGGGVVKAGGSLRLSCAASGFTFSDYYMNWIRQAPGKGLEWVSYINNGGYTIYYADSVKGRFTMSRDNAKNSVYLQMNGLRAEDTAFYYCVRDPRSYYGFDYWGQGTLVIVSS VL: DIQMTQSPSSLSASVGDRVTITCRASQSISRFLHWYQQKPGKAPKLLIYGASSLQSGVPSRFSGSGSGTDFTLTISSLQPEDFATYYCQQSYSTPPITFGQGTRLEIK	0.15
H1M12386N (antibody, V domains shown) VH: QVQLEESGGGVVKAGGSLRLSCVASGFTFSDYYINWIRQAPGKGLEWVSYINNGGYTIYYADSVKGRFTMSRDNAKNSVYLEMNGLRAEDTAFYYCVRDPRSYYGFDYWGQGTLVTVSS VL: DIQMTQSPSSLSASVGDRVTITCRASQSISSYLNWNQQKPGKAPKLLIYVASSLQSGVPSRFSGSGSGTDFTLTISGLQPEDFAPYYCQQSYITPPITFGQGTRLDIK	0.29
H2M12395N (antibody, V domains shown, also called H2aM12395N) VH: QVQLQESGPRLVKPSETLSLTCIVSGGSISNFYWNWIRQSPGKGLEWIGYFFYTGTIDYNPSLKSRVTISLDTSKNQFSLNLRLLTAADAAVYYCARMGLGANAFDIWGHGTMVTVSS VL: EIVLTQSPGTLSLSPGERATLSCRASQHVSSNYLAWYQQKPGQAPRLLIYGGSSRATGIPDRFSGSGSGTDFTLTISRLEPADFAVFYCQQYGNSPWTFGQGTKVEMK	1.7
H2M12452N (antibody, V domains shown, also called H2aM12452N) VH: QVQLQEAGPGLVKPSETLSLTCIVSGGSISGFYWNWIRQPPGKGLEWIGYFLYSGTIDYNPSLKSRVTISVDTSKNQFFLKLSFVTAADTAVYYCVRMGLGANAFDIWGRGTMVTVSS VL: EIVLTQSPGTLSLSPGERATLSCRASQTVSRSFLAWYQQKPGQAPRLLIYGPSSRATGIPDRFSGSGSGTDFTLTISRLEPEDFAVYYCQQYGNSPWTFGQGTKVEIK	0.74
